Data origin, for the record: ChEMBL document CHEMBL1145820

Tested on: MCF-12A
PROTOCOL DETAILS: Inhibitory activity against MCF-12A human breast cell line
Assay type: functional, cell-based
QUANTITY NAME: IC50 (µM)

Please review the following examples before continuing.
{"columns": ["ITEM SMILES", "TARGET ENTITY", "IC50, µM"],
 "data": [
  ["O=C(/C=C/c1ccc(I)cc1)c1ccc(OCB(O)O)cc1", "MCF-12A", 100],
  ["O=C(/C=C/c1ccc(F)c(F)c1)c1ccc(B(O)O)cc1", "MCF-12A", 39],
  ["O=C(O)COc1ccc(C(=O)/C=C/c2ccc(Cl)c(Cl)c2)cc1", "MCF-12A", 15],
  ["O=C(/C=C/c1ccc(I)cc1)c1ccc(O)cc1", "MCF-12A", 30],
  ["O=C(/C=C/c1ccc(Cl)c(Cl)c1)c1ccc(B(O)O)cc1", "MCF-12A", 11],
  ["O=C(/C=C/c1ccc(I)cc1)c1ccc(B(O)O)cc1", "MCF-12A", 63],
  ["O=C(O)COc1ccc(C(=O)/C=C/c2ccc(I)cc2)cc1", "MCF-12A", 38],
  ["O=C(O)COc1ccc(/C=C/C(=O)c2ccc(Cl)c(Cl)c2)cc1", "MCF-12A", 28]
]}

1. O=C(/C=C/c1ccc(B(O)O)cc1)c1ccc(Cl)c(Cl)c1
2. O=C(/C=C/c1ccccc1)c1ccc[nH]1
Out of 1 and 2 , name the one with the higher IC50. Please reply using the label of the selected record. 2
(2: 38 µM, 1: 15 µM)

A. O=C(/C=C/c1ccc(B(O)O)cc1)c1ccc[nH]1
B. O=C(/C=C/c1ccc(F)c(Br)c1)c1ccc(B(O)O)cc1
C. O=C(/C=C/c1ccc(F)c(Cl)c1)c1ccc(B(O)O)cc1
Arrange the 3 molecules from largest to smallest IC50. // ordering of labels required in reply A, B, C
(A: 60 µM, B: 38 µM, C: 22 µM)

* * *

Tested on: MDA-MB-435
PROTOCOL DETAILS: Inhibitory activity against MDA-MB-435 human breast cell line
Format: functional, cell-based
pIC50: −log10 of the molar value.
QUANTITY NAME: pIC50

Please review the following examples before continuing.
{"columns": ["ITEM SMILES", "pIC50"],
 "data": [
  ["O=C(/C=C/c1ccc(F)c(F)c1)c1ccc(B(O)O)cc1", 5.06],
  ["O=C(O)COc1ccc(/C=C/C(=O)c2ccc(Cl)c(Cl)c2)cc1", 4.89],
  ["O=C(/C=C/c1ccc(B(O)O)cc1)c1ccc[nH]1", 4.82],
  ["O=C(/C=C/c1ccc(F)c(Cl)c1)c1ccc(B(O)O)cc1", 4.80],
  ["O=C(/C=C/c1ccc(I)cc1)c1ccc(O)cc1", 5.35]
]}

1. O=C(O)COc1ccc(C(=O)/C=C/c2ccc(Cl)c(Cl)c2)cc1
2. O=C(/C=C/c1ccc(B(O)O)cc1)c1ccc(Cl)c(Cl)c1
Out of 1 and 2 , name the one with the higher pIC50. Please reply using the label of the selected record. 2
(2: 5.40, 1: 5.05)

* * *

Tested on: MDA-MB-435
PROTOCOL DETAILS: Inhibitory activity against MDA-MB-435 human breast cell line
Format: functional, cell-based
pIC50: −log10 of the molar value.
QUANTITY NAME: pIC50

Please review the following examples before continuing.
{"columns": ["ITEM SMILES", "MEASURED NUMBER"],
 "data": [
  ["O=C(O)COc1ccc(C(=O)/C=C/c2ccc(I)cc2)cc1", 4.74],
  ["O=C(/C=C/c1ccc(Cl)c(Cl)c1)c1ccc(B(O)O)cc1", 5.46],
  ["O=C(/C=C/c1ccc(I)cc1)c1ccc(OCB(O)O)cc1", 4.74]
]}

1. O=C(/C=C/c1ccccc1)c1ccc[nH]1
2. O=C(/C=C/c1ccc(F)c(Br)c1)c1ccc(B(O)O)cc1
Problem: Given the entries 1 and 2 , determine which has the lower reported pIC50. Please reply using the label of the selected record. 1
(1: 4.82, 2: 5.06)
